- System: SK-MEL-28
- Assay Comment: NCI tumour cell line growth inhibition, 48 h
Active and inactive are the calls of the source. Rule as the data show it: active = GI50 up to about 1.1 µM and inactive = higher.
Parameter: GI50. Scope: all listed entries.

// worked examples, GI50 included
{"Compound": "CS(=O)(=O)OCCN(CCOS(C)(=O)=O)c1ccc(C=O)cc1", "Target Desc": "SK-MEL-28", "GI50": "17.1 µM (inactive)"}
{"Compound": "O=C1OCC2=C1C(c1ccc(Cl)cc1)c1cc3c(cc1O2)OCO3 (stereo not given)", "Target Desc": "SK-MEL-28", "GI50": "6.21 µM (inactive)"}
{"Compound": "Cc1nc(-n2nc(-c3ccccc3)cc2-c2ccccc2)sc1C(=O)/C=C/c1cccc([N+](=O)[O-])c1", "Target Desc": "SK-MEL-28", "GI50": "17.1 µM (inactive)"}
{"Compound": "COc1cc2nc(-c3cccs3)nc(N3CCN(c4ccccc4C(F)(F)F)CC3)c2cc1OC", "Target Desc": "SK-MEL-28", "GI50": "> 100 µM (inactive)"}

// returns reported GI50 for input CCOC(=O)n1[nH]c(=O)n(-c2ccccc2)c1=O
> 100 µM (inactive)

* * *

- System: OVCAR-3
- Assay Comment: NCI tumour cell line growth inhibition, 48 h
Active and inactive are the calls of the source. No stated cut-off is given here; in the data, active = GI50 up to about 1.1 µM and inactive = higher.
Experimental Endpoint: GI50

// worked examples, GI50 included
{"Molecule": "N#CCCN(CCC#N)c1ccc(/C=C(\\NC(=O)c2cc([N+](=O)[O-])ccc2Cl)C(=O)Nc2ccccc2)cc1", "Data Value": "> 100 µM (inactive)"}
{"Molecule": "NN(CC(=O)O)CC(=O)O", "Data Value": "> 100 µM (inactive)"}
{"Molecule": "COC(=O)CC(C#N)(OP1(=O)OC(c2ccccc2)C(C)N1C)c1ccccc1 (stereo not given)", "Data Value": "18.8 µM (inactive)"}
{"Molecule": "COC(=O)NCCc1n[nH]c2c1C(=O)C=C(Nc1ccccc1OC)C2=O", "Data Value": "7.64 µM (inactive)"}

# ---- query molecule ----
// returns reported GI50 for input COc1cc2nc(-c3cccs3)nc(N3CCN(c4ccccc4C(F)(F)F)CC3)c2cc1OC
21.5 µM (inactive)

* * *

- System: SF-295
- Assay Comment: NCI tumour cell line growth inhibition, 48 h
Active and inactive are the calls of the source. Cut-off read from the data, not from the text of the source: active = GI50 up to about 1.1 µM and inactive = higher.
Choose the fitting class; nothing outside Y = active, N = inactive is accepted.

Record excerpt, results attached:
{"Compound": "COC(=O)C[C@](O)(CCC(C)(C)O)C(=O)O[C@@H]1C(OC)=C[C@]23CCCN2CCc2cc4c(cc2[C@H]13)OCO4", "Target Desc": "SF-295", "Category": "Y"}
{"Compound": "CC1(C)C2=CCCC(=O)[C@@]2(C)CC[C@@H]1O", "Target Desc": "SF-295", "Category": "N"}
{"Compound": "O=c1[nH]c2c(O)cccc2c2cc3c(c(O)c12)OCO3", "Target Desc": "SF-295", "Category": "N"}

Turning now to a further compound:
Which outcome was entered for the compound CN(C(=O)Cc1cc(Cl)c(Cl)cc1N=C=S)[C@H]1CCCC[C@@H]1N1CCCC1 in this test?
N

* * *

- Test system: HOP-92
- Assay Comment: NCI tumour cell line growth inhibition, 48 h
Calls of active or inactive are those of the source. No stated cut-off is given here; in the data, active = GI50 up to about 1.1 µM and inactive = higher.
Experimental Endpoint: GI50

{"Compound": "CC1C(=O)O[C@H]2C1CC[C@@]1(C)[C@H](O)CC[C@@]13C[C@]2(O)OO3 (stereo not given in full)", "Target Desc": "HOP-92", "GI50": "> 100 µM (inactive)"}

// returns reported GI50 for input CNC(=O)CCCN(C)C(=O)CCCCC(=O)N(C)C
> 60.1 µM (inactive)

// returns reported GI50 for input Cc1onc(-c2c(F)cccc2Cl)c1C(=O)N[C@@H]1C(=O)N2[C@@H]1SC(C)(C)[C@@H]2C(=O)O
> 100 µM (inactive)

// returns reported GI50 for input O=C(/C(=C\I)c1ccccc1)c1ccccc1
13.7 µM (inactive)

* * *

- System: EKVX
- Assay Comment: NCI tumour cell line growth inhibition, 48 h
Calls of active or inactive are those of the source. Rule as the data show it: active = GI50 up to about 1.1 µM and inactive = higher.
Parameter: GI50. Scope: all listed entries.

// worked examples, GI50 included
{"Smiles Code": "Cc1cc2c(c(C(N)=O)c1C)-c1cccc(F)c1C2=O", "GI50": "> 100 µM (inactive)"}
{"Smiles Code": "CNc1ccccc1S(=O)(=O)c1ccccc1[N+](=O)[O-]", "GI50": "> 100 µM (inactive)"}
{"Smiles Code": "CC(=O)C(=N\\Nc1ccc(Cl)cc1)/C(C)=N/c1ccc(C)cc1", "GI50": "21.3 µM (inactive)"}

// returns reported GI50 for input Cc1nc(-n2nc(-c3ccccc3)cc2-c2ccccc2)sc1C(=O)/C=C/c1cccc([N+](=O)[O-])c1
34.7 µM (inactive)

// returns reported GI50 for input COC(=O)CNC(=O)CSc1nnc(COc2ccc(Cl)cc2)n1-c1ccccc1
> 100 µM (inactive)

* * *

Parameter: GI50. Scope: all listed entries.
- Tested on: OVCAR-3
- Assay Comment: NCI tumour cell line growth inhibition, 48 h
Active and inactive are the calls of the source. No stated cut-off is given here; in the data, active = GI50 up to about 1.1 µM and inactive = higher.

{"Molecule": "C=C(C)C#CC(O)(C(=O)OC1CCN(C)CC1)C(C)C (stereo not given)", "Data Value": "> 100 µM (inactive)"}
{"Molecule": "CC(C)(C)OC(=O)CC(NC(=O)OC(C)(C)C)C(=O)Oc1ccc([N+](=O)[O-])cc1 (stereo not given)", "Data Value": "> 100 µM (inactive)"}
{"Molecule": "NC(=O)C1=C(O)C[C@@H]2CC3Cc4cccc(O)c4C(=O)C3=C(O)[C@]2(O)C1=O (stereo not given in full)", "Data Value": "2.77 µM (inactive)"}
{"Molecule": "CC(C)(C)NNC(=O)/C(=C/c1ccc(Oc2ccc(Cl)c(Cl)c2)cc1)NC(=O)c1ccccc1", "Data Value": "> 100 µM (inactive)"}

# ---- query molecule ----
Please provide the recorded GI50 for O=C(/C(=C\I)c1ccccc1)c1ccccc1 , tested on OVCAR-3.
2.24 µM (inactive)

* * *

- Tested on: OVCAR-4
- Assay Comment: NCI tumour cell line growth inhibition, 48 h
Activity calls are given as the source filed them. Cut-off read from the data, not from the text of the source: active = GI50 up to about 1.1 µM and inactive = higher.
Choose the fitting class; nothing outside class 1 = active, class 0 = inactive is accepted.

{"Molecule": "CC(NNC(=O)c1cc[n+]([BH2-]C#N)cc1)C(F)(F)F (stereo unspecified)", "Category": "class 0"}
{"Molecule": "NC(=S)N/N=C\\c1nccc2ccccc12", "Category": "class 1"}
{"Molecule": "COc1ccc(OC)c2c(C)ccnc12", "Category": "class 0"}
{"Molecule": "O=C(CN1CCCC1)Nc1ccc2sc3ccccc3c(=O)c2n1", "Category": "class 0"}
{"Molecule": "CC(=O)O[C@H]1CC[C@@]2(C)C(=CC[C@H]3[C@@H]4C/C(=C\\c5ccc(N(C)C)cc5)[C@H](OC(C)=O)[C@@]4(C)CC[C@@H]32)C1", "Category": "class 0"}

Which outcome was entered for the molecule O=C1C(Cl)C2(CC(/C=C/c3ccccc3O)=NN2c2cccc(S(=O)(=O)O)c2)N1c1nc2ccccc2s1 (stereo unspecified) in this test?
class 0

Which outcome was entered for the molecule CCc1c(CN)c(CC)c(CNC2=NCCN2)c(CC)c1CNC1=NCCN1 in this test?
class 0

Which outcome was entered for the molecule CCOC(=O)C(=Cc1ccc(Oc2ccccc2)cc1)C(=O)OCC in this test?
class 0

Which outcome was entered for the molecule COc1ccc(-c2nc(N(C)C)c3ccccc3n2)cc1 in this test?
class 0

Which outcome was entered for the molecule CN(C)C(=S)NC(=S)Nc1ccc2ccccc2c1 in this test?
class 0

Which outcome was entered for the molecule O=C(O)CCCc1nc2c(n1Cc1ccccc1)C(=O)c1ccccc1C2=O in this test?
class 0

* * *

Parameter: GI50. Scope: all listed entries.
- Test system: SF-295
- Assay Comment: NCI tumour cell line growth inhibition, 48 h
The source made the active and inactive calls. Rule as the data show it: active = GI50 up to about 1.1 µM and inactive = higher.

{"Compound": "CN1Nc2ccccc2CC1=O", "Experimental Endpoint": "GI50", "Data Value": "> 100 µM (inactive)"}
{"Compound": "Cc1ccc(S(=O)(=O)Nn2c(O)c(C#N)c(-c3ccc(Cl)cc3)c(C#N)c2=O)cc1", "Experimental Endpoint": "GI50", "Data Value": "> 100 µM (inactive)"}

// returns reported GI50 for input C=C1c2[nH]c3ccccc3c2C2C(CC)C1CCN2C (stereo not drawn)
55.8 µM (inactive)

* * *

- Tested on: RPMI-8226
- Assay Comment: NCI tumour cell line growth inhibition, 48 h
Active and inactive are the calls of the source. Rule as the data show it: active = GI50 up to about 1.1 µM and inactive = higher.
Experimental Endpoint: GI50

{"Compound": "CC(OC(=O)NCn1cc(-c2ccccc2)nn1)c1ccccc1 (centres undefined)", "GI50": "30.2 µM (inactive)"}
{"Compound": "CC(=O)c1c(CO[N+](=O)[O-])[n+]([O-])c2ccccc2[n+]1[O-]", "GI50": "56.6 µM (inactive)"}
{"Compound": "C/C(=C\\COP(=O)(O)CP(=O)(O)O)CC/C=C(\\C)CNc1ccccc1", "GI50": "> 100 µM (inactive)"}

# ---- query compound ----
// returns reported GI50 for input CC1(C)CC[C@]2(C(=O)O)CC[C@]3(C)C(=CC[C@@H]4[C@@]5(C)C[C@H](O)[C@H](O)[C@@](C)(C(=O)O)[C@@H]5CC[C@]43C)[C@@H]2C1
> 86.9 µM (inactive)
